System: HL-60(TB) leukemia
Experiment: NCI tumour cell line growth inhibition, 48 h
observed-property: TGI (µM)
Output spec: scalar in µM, unitless text.

// worked examples, TGI included
c1ccc(-c2n(Cc3ccc4ccccc4n3)cc[n+]2Cc2ccc3ccccc3c2)cc1; 0.88
N=c1oc2ccccc2cc1C(=O)NC12CC3CC(CC(C3)C1)C2; 30.7
O=C(Nc1cccc(C(F)(F)F)c1)Nc1cccc(C(F)(F)F)c1; 5.86
COc1ccc(CN2C(=O)C(Cl)=C(Nc3cccc(C(F)(F)F)c3)C2=O)cc1; 19.5
Cc1ccc(S[C@@H](C)[C@@](O)(CF)CN(Cc2ccccc2)C(=O)C(F)(F)F)cc1; 46.2
CCCCCCCCCCCCNC(=S)OC; 27.9

Input: Item Cc1ccc(C(=O)OC(C(=O)O)C(OC(=O)c2ccc(C)cc2)C(=O)O)cc1 (stereo not given) (tested in a mixture with another compound) has what recorded TGI?
Output: 4.08

Input: # query: TGI of entry C=C1C(=O)O[C@@H]2/C=C(C)/C=C\[C@@H]3O[C@@]3(C)C[C@@H](O)C12 (stereo not given in full)
Output: 8.93

Input: State the recorded TGI for this entry: CN(C)CC(O)c1ccc(/C=C/c2ccc(Cl)cc2)cc1 (stereo not given)
Output: 2.7

Input: // returns reported TGI for input `CC(=O)OCCOCNC(=S)N/N=C/c1ccc([N+](=O)[O-])o1`
Output: 39.2

Input: Endpoint output: TGI of CCC(C)SC1SCC2C(=O)N(C)C3(CC3C)C(=O)OCC(NC(=O)c3nc4ccccc4cc3O)C(=O)NC(C)C(=O)N(C)C1C(=O)N(C)C1(CC1C)C(=O)OCC(NC(=O)c1nc3ccccc3cc1O)C(=O)NC(C)C(=O)N2C (stereo not given) . Value?
Output: 0.00488

Data origin: PubChem BioAssay (NCI)
